Test system: SN12C
Assay: NCI tumour cell line growth inhibition, 48 h
Active and inactive are the calls of the source. No stated cut-off is given here; in the data, active = GI50 up to about 1.1 µM and inactive = higher.

{"columns": ["Compound", "GI50"],
 "data": [
  ["O=C1/C(=C\\Oc2ccc(F)cc2)N2CCC1CC2", "94.6 µM (inactive)"],
  ["Cc1ccc(O)c(C(c2ccc(C(c3cc(C)ccc3O)c3cc(C)ccc3O)cc2)c2cc(C)ccc2O)c1", "1.65 µM (inactive)"],
  ["C/C(=N\\NC(=S)NCCNC(=S)N/N=C(\\C)c1ccccn1)c1ccccn1", "1.94 µM (inactive)"],
  ["CCO/C=N\\c1c(C#N)c(-c2ccc(Cl)cc2)cn1-c1ccc(C)cc1", "> 100 µM (inactive)"],
  ["COc1ccc(NC(C)=O)cc1N1C(=O)/C(=C\\c2ccccc2)SC1c1cc(OC)c(OC)c(OC)c1 (stereo not given)", "80.5 µM (inactive)"],
  ["Clc1nc2c(C#Cc3ccccc3)ncnc2n1C1CCCCO1 (stereo not given)", "10.4 µM (inactive)"],
  ["COc1ccc2c(c1)N(CCC1CCCCN1C)c1ccccc1S2 (stereo not given)", "13.4 µM (inactive)"],
  ["C=C(C(=C)P(=S)(C(C)C)C(C)C)P(=S)(C(C)C)C(C)C", "> 100 µM (inactive)"],
  ["COc1cc(/C=C2/SC(c3ccccc3)N(c3ccccc3Cl)C2=O)cc(OC)c1OC (stereo not given)", "23.7 µM (inactive)"],
  ["c1ccc2c(c1)Cc1c(Cc3csc4ccccc34)ccc3cccc-2c13", "> 100 µM (inactive)"]
]}

---

System: SK-OV-3
Test: NCI tumour cell line growth inhibition, 48 h
Calls of active or inactive are those of the source. Rule as the data show it: active = GI50 up to about 1.1 µM and inactive = higher.
Measured endpoint: GI50

{"columns": ["Molecule", "Measured endpoint", "Assay result"],
 "data": [
  ["CC1(C)C2CCC3(C2)CS(=O)(=O)N2OC231 (stereo not given)", "GI50", "49.7 µM (inactive)"],
  ["CCOC(=O)C(C(=O)Cc1ccccc1)c1ccccc1 (stereo not given)", "GI50", "> 100 µM (inactive)"],
  ["CC(C)(C)OC(=O)C1=C(N)N(Cc2ccccc2)C2(C)C=CC(=O)C=C12 (stereo not given)", "GI50", "19.5 µM (inactive)"],
  ["COc1cc(C(c2c(O)c3ccccc3oc2=O)c2c(O)c3ccccc3oc2=O)cc(Br)c1O", "GI50", "20.1 µM (inactive)"],
  ["Cc1c(C2Cc3ccccc3N2)c2ccccc2n1C (stereo not given)", "GI50", "> 100 µM (inactive)"],
  ["Clc1ccc(C2C3COc4ccccc4C3=NN2c2ccccc2)cc1 (stereo not given)", "GI50", "> 100 µM (inactive)"],
  ["CC(=O)c1ccc2c3c1O[C@H]1c4[nH]c5ccccc5c4C[C@@]4(O)[C@@H](C2)N(CC2CC2)CC[C@]314", "GI50", "20.1 µM (inactive)"],
  ["CCCCn1cnc2c(SC)ncnc21", "GI50", "> 100 µM (inactive)"],
  ["O=C1/C(=C/c2ccc(Cl)cc2)CSC/C1=C\\c1ccc(Cl)cc1", "GI50", "5.32 µM (inactive)"],
  ["CCNC(=O)O/N=C1\\CCC2[C@@H]3CC=C4C[C@@H](OC5CCCCO5)CC[C@]4(C)C3CC[C@]12C (stereo not given in full)", "GI50", "5.31 µM (inactive)"]
]}
